The following compounds are shown together with reported IC50 values.
Biological target: APOL1 (Homo sapiens)
Sequence (O14791 1-398 S342G/I384M): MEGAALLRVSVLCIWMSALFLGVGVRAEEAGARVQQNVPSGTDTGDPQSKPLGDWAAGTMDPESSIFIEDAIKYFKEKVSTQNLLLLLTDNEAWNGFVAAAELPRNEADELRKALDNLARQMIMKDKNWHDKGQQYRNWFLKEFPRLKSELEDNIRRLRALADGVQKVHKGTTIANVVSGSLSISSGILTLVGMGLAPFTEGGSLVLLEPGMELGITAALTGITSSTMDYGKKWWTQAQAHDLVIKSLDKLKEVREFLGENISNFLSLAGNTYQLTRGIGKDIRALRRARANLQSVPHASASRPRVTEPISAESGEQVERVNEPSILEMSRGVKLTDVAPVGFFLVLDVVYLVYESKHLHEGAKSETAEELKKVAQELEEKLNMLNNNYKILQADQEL
Assay: MultiTox-Fluor Multiplex Cytotoxicity Assay in tet-inducible APOL1 T-REx-HEK293 cells (cell rescue, ratio of dead to live cells)
Settings: tet-inducible transgenic APOL1 T-REx-HEK293 cell lines, 50 ng/mL tet, 24 hours; read-out: IP50 (i.e., IC50 for cell proliferation)

These recorded examples may help you get a feel for the data.
{"columns": ["COMPOUND", "ENDPOINT_NAME", "RECORDED_MEASUREMENT"],
 "data": [
  ["CNC(=O)[C@@H](O)CN1CC[C@]2(C[C@@H]1C)OCCc1cc(Cl)sc12", "IC50", "0.5 to 1 µM"],
  ["C[C@H]1C[C@@]2(CCN1Cc1cn(C)cn1)OCCc1cc(CC(F)F)sc12", "IC50", "0.1 to 0.5 µM"],
  ["C[C@H]1C[C@@]2(CCN1Cc1cnn(CCS(C)(=O)=O)c1)OCCc1cc(CO)sc12", "IC50", "0.1 to 0.5 µM"]
]}

Req: Any idea what its IC50 is? The compound is CCc1cc2c(s1)CCO[C@@]21CCN(CC2CN(C(=O)C3CNC(=O)O3)C2)[C@@H](C)C1 (stereo partly shown)
Resp: 0.1 to 0.5 µM

Req: Any idea what its IC50 is? The compound is CCc1cc2c(s1)CCO[C@@]21CCN(Cc2cn(CCc3ncn[nH]3)nn2)[C@@H](C)C1
Resp: < 0.1 µM

Req: Any idea what its IC50 is? The compound is CCc1cc2c(s1)CCO[C@@]21CCN(C[C@H]2C[C@@H](NC(=O)c3ccc(=O)[nH]n3)C2)[C@@H](C)C1
Resp: < 0.1 µM

Req: Any idea what its IC50 is? The compound is CCc1cc2c(s1)C(C)COC21CCN(Cc2cnn(C)c2)CC1 (single isomer, unassigned) [Compound 1171]
Resp: 0.5 to 1 µM
